Target: T1, rat calcitonin receptor (rat, UniProt P32214 25-516)
T1 construct: whole, on cells; membranes of transiently transfected BHK tk'ts 13 cells (Assay VIII); also called rCTR; rat calcitonin (a) receptor
T1 sequence (looked up): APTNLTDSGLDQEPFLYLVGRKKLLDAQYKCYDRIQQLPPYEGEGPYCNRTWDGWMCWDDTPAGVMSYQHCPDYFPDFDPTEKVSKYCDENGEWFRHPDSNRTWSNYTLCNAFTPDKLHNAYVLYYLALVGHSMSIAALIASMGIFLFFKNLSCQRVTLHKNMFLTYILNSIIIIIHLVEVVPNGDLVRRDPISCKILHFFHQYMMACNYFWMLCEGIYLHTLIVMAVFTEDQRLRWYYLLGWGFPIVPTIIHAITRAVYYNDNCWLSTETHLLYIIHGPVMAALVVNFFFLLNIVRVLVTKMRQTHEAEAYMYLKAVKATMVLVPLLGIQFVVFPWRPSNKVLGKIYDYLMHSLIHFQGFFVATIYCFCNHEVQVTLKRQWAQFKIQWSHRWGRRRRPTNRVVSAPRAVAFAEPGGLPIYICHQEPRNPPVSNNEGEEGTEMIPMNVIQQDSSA
Assay: IC50 on rat calcitonin receptor divided by IC50 on rat amylin receptor (SPA competition)
Numbered stars: 1 amine (or outer) side, 2 acyl side, 3 side chain; on linkers, the order of the positions; unused ones are H or OH. Bridge positions count the residues as written; N and C are the ends. Side chains are listed from the residue outwards. Ends that are not written are not given here. * marks the point of attachment. C20 diacid = O=C(O)CCCCCCCCCCCCCCCCCCC(=O)*; γGlu = O=C(O)[C@H](CCC(=O)[*:2])N[*:1]
Response field label takes Criterion met when Ratio rCT/rAmylin binding is strictly below 70 and Criterion not met in all other cases.

# count of solved cases: 4
Query string: I wonder whether K([γGlu-C20 diacid])CNTATCATQRLANFLRHSSPNFGAIPSSTNVGSNTY-NH2 (disulfide 2-7 (inferred), analogue of human amylin; also called compound 48) [N^ε1-[(4S)-4-carboxy-4-(19-carboxynonadecanoylamino)butanoyl]-[Arg17,Pro21,Pro27]-h-amylin] has Ratio rCT/rAmylin binding below 70. Can you tell?
Result string: Criterion not met

Query string: I wonder whether {C20 diacid-γGlu}-KCNTATCATQRLAEFLRHSSPNFGAIPSSTNVGKNTY-NH2 (disulfide 2-7 (inferred), analogue of human amylin; also called compound 36) has Ratio rCT/rAmylin binding below 70. Can you tell?
Result string: Criterion met

Query string: I wonder whether K([γGlu-C20 diacid])RCNTATCATQRLANFLRHSSPNFGAIPSSTNVGSHTY-NH2 (disulfide 3-8 (inferred), analogue of human amylin extended by Lys at the N-terminus; also called compound 44) has Ratio rCT/rAmylin binding below 70. Can you tell?
Result string: Criterion met

Query string: I wonder whether {C20 diacid-γGlu}-GRCNTATCATQRLANFLRHSSPNFGAIPSSTNVGSHTY-NH2 (disulfide 3-8 (inferred), analogue of human amylin extended by Gly at the N-terminus; also called compound 47) has Ratio rCT/rAmylin binding below 70. Can you tell?
Result string: Criterion not met

Kindly review the next binder as well.
Query string: I wonder whether K([γGlu-γGlu-C20 diacid])CNTATCATQRLADFLRHSSPNFGAIPSSTNVGSDTY-NH2 (disulfide 2-7 (inferred), analogue of human amylin; also called compound 2) has Ratio rCT/rAmylin binding below 70. Can you tell?
Result string: Criterion not met
